Consider the following compounds and their measured Physical data: logP readings.
Test: log P determination by HPLC (EEC Directive 79/831 Annex V.A8, gradient method)
Type: physicochemical
Answer with the value's number alone.

{"COMPOUND": "Cc1cn2c(/C=C/C(=O)NCCC(C)C)c(-c3ccccc3Cl)nc2s1", "NUMERIC_RESULT": 3}
{"COMPOUND": "COCc1nn2c(/C=C/C(=O)Nc3ccc(C(F)(F)F)cc3)c(-c3ccccc3Cl)nc2s1", "NUMERIC_RESULT": 3.99}
{"COMPOUND": "COCc1nn2c(/C=C/C(=O)NC3CC3)c(-c3ccccc3Cl)nc2s1", "NUMERIC_RESULT": 2.2}

Let us examine a further case.
Data request: Return reported Physical data: logP. Input compound: CC(NC(=O)/C=C/c1c(-c2ccccc2Cl)nc2sc(C(F)(F)C(F)(F)F)nn12)C(F)(F)F (racemic)
Data returned: 4.07

====

Assay: log P determination by HPLC (EEC Directive 79/831 Annex V.A8, gradient method)
Assay type: physicochemical
ASSAY_METRIC: Physical data: logP
Answer with the value's number alone.

{"COMPOUND": "CC(C)(NC(=O)/C=C/c1c(-c2ccc(F)cc2Cl)nc2sc(C(F)(F)F)nn12)C(F)(F)F", "ASSAY_METRIC": "Physical data: logP", "NUMERIC_RESULT": 4.11}
{"COMPOUND": "Cc1cn2c(/C=C/C(=O)NC(C)C)c(-c3ccccc3Cl)nc2s1", "ASSAY_METRIC": "Physical data: logP", "NUMERIC_RESULT": 2.35}
{"COMPOUND": "COc1ccc(-c2nc3sc(C(F)(F)F)nn3c2/C=C/C(=O)NOCC2CC2)cc1OC", "ASSAY_METRIC": "Physical data: logP", "NUMERIC_RESULT": 2.88}
{"COMPOUND": "Cc1csc2nc(-c3ccccc3Cl)c(/C=C/C(=O)NCC(C)C)n12", "ASSAY_METRIC": "Physical data: logP", "NUMERIC_RESULT": 2.4}
{"COMPOUND": "CC(C)(C)c1nn2c(/C=C/C(=O)NC3CCC3)c(-c3ccccc3Cl)nc2s1", "ASSAY_METRIC": "Physical data: logP", "NUMERIC_RESULT": 3.52}

Data request: Return reported Physical data: logP. Input compound: Cc1cn2c(/C=C/C(=O)NC(C)C(F)(F)F)c(-c3ccccc3Cl)nc2s1 (stereo not shown)
Data returned: 2.85

Data request: Return reported Physical data: logP. Input compound: CCC(C)NC(=O)/C=C/c1c(-c2ccccc2Cl)nc2sc(C)cn12 (stereo not shown)
Data returned: 2.54

Data request: Return reported Physical data: logP. Input compound: CC(NC(=O)/C=C/c1c(-c2ccc(F)cc2Cl)nc2sc(C(F)(F)C(F)(F)F)nn12)C(F)(F)F (racemic)
Data returned: 4.19

Data request: Return reported Physical data: logP. Input compound: Cc1csc2nc(-c3ccccc3Cl)c(/C=C/C(=O)NCC(F)(F)C(F)(F)C(F)(F)F)n12
Data returned: 3.22

Data request: Return reported Physical data: logP. Input compound: CC(C)(C)c1nn2c(/C=C/C(=O)NCC(F)(F)C(F)(F)F)c(-c3ccccc3Cl)nc2s1
Data returned: 4.08

Data request: Return reported Physical data: logP. Input compound: CCC(C)NC(=O)/C=C/c1c(-c2ccc(OC)c(OC)c2)nc2sc(C(F)(F)F)nn12 (stereo not shown)
Data returned: 3.14

Data request: Return reported Physical data: logP. Input compound: Cc1csc2nc(-c3ccccc3Cl)c(/C=C/C(=O)NC3CCC(C(F)(F)F)CC3)n12 (stereo not shown)
Data returned: 3.04

Data request: Return reported Physical data: logP. Input compound: CC(NC(=O)/C=C/c1c(-c2sccc2Cl)nc2sc(C(F)(F)F)nn12)C(F)(F)F (racemic)
Data returned: 3.65

Data request: Return reported Physical data: logP. Input compound: COCc1nn2c(/C=C/C(=O)Nc3ccc(Cl)cc3)c(-c3ccccc3Cl)nc2s1
Data returned: 3.87

Data request: Return reported Physical data: logP. Input compound: CC(C)NC(=O)/C=C/c1c(-c2sccc2Cl)nc2sc(C(F)(F)F)nn12
Data returned: 3.19

Data request: Return reported Physical data: logP. Input compound: O=C(/C=C/c1c(-c2ccccc2Cl)nc2sc(-c3ccc(C(F)(F)F)cc3)nn12)NCC(F)(F)C(F)(F)C(F)(F)F
Data returned: 5

Data request: Return reported Physical data: logP. Input compound: Cc1cn2c(/C=C/C(=O)Nc3ccc(Cl)cc3)c(-c3ccccc3Cl)nc2s1
Data returned: 3.57

Data request: Return reported Physical data: logP. Input compound: COc1ccc(-c2nc3sc(C(F)(F)F)nn3c2/C=C/C(=O)NC2CC2)cc1OC
Data returned: 2.64

Data request: Return reported Physical data: logP. Input compound: Cc1csc2nc(-c3ccccc3Cl)c(/C=C/C(=O)NCC(F)(F)F)n12
Data returned: 2.36

Data request: Return reported Physical data: logP. Input compound: COc1ccc(-c2nc3sc(C(F)(F)F)nn3c2/C=C/C(=O)NC(C)C(C)C)cc1OC (stereo not shown)
Data returned: 3.41
